system: Rhodobacter sphaeroides 2.4.1; type: cell-based
assay_readout: Resistance in words

// known answers, use as guide
compound	Resistance in words
[Na+].[Na+].[O]=[W](=[O])([O-])[O-] [Na2 WO4]	resistance was shown
[NH4+].[O]=[V](=[O])[O-] [NH4 VO3]	shows resistance
[O-][I+3]([O-])([O-])O [IO4^-]	resistance was shown
[O-2].[O-2].[O-2].[Sb+3].[Sb+3] [Sb2 O3]	shows resistance
[O]=[Mo](=[O])=[O] [MoO3]	shows resistance
O=[Si]([O-])[O-].[Na+].[Na+] [Na2 SiO3]	resistance was shown
O=S([O-])[O-].[Na+].[Na+] [Na2 SO3]	resistance was shown
[O]=[Sn]=[O] [SnO2]	shows resistance
O=[Te](=O)([O-])[O-].[K+].[K+] [K2 TeO4]	High level resistance
[Na+].[Na+].[O]=[Mo](=[O])([O-])[O-] [Na2 MoO4]	resistance was shown

Would you kindly share the measured Resistance in words for O=[Se](=O)([O-])[O-].[Na+].[Na+] [Na2 SeO4] ?
High level resistance

Would you kindly share the measured Resistance in words for O=[Se]([O-])[O-].[Na+].[Na+] [Na2 SeO3] ?
High level resistance

###

test system: R. sphaeroides 2.4.1; type: cell-based, Rhodobacter sphaeroides
assay_readout: Gas evolution in words

// known answers, use as guide
molecule	Gas evolution in words
[Na+].[Na+].[O]=[Mo](=[O])([O-])[O-] [Na2 MoO4]	no gas was evolved
[Na+].[Na+].[O]=[W](=[O])([O-])[O-] [Na2 WO4]	no gas was evolved
O=[Te](=O)([O-])[O-].[K+].[K+] [K2 TeO4]	Copious gas evolution
O=[Te]([O-])[O-].[K+].[K+] [K2 TeO3]	Copious gas evolution

Now consider the entry below.
Would you kindly share the measured Gas evolution in words for O=S([O-])[O-].[Na+].[Na+] [Na2 SO3] ?
no gas was evolved
